Kindly state EC50 for each of the entries shown.
# System: human keratinocytes (HaCaT cells)
# assay-info: Cytotoxicity, MTS assay
# conditions: 24 h
Peptide text beside a SMILES is read from it.
Give bare numbers, in µM.

{"compound": "CC[C@H](C)[C@H](NC(=O)[C@H](CCCNC(=N)N)NC(=O)[C@H](CCCNC(=N)N)NC(=O)[C@H](CC(C)C)NC(=O)[C@H](Cc1c[nH]c2ccccc12)NC(=O)[C@H](C)NC(=O)[C@H](CCCCN)NC(=O)[C@@H](NC(=O)[C@H](CCCNC(=N)N)NC(=O)[C@H](CCCNC(=N)N)NC(=O)[C@H](CC(C)C)NC(=O)[C@@H](N)Cc1c[nH]c2ccccc12)[C@@H](C)CC)C(=O)N[C@@H](CCCCN)C(=O)N[C@@H](C)C(=O)O", "EC50, µM": 128}

Query :: What EC50 value was documented for this compound, CC[C@H](C)[C@H](NC(=O)[C@H](Cc1c[nH]c2ccccc12)NC(=O)[C@H](CCCCN)NC(=O)[C@H](CCCCN)NC(=O)[C@@H](NC(=O)[C@H](CCCNC(=N)N)NC(=O)[C@H](CCCNC(=N)N)NC(=O)[C@@H](NC(=O)[C@@H](N)Cc1c[nH]c2ccccc12)[C@@H](C)CC)[C@@H](C)CC)C(=O)N[C@@H](CCCNC(=N)N)C(=O)N[C@@H](CCCNC(=N)N)C(=O)N[C@H](C(=O)N[C@@H](Cc1c[nH]cn1)C(=O)N[C@@H](CCCCN)C(=O)O)C(C)C [RR2] (H-WIRRIKKWIRRVHK-OH; N-terminus and C-terminus assumed) ?
Result :: 64
